Please consider the recorded Ki for human 5-HT2B receptor (Homo sapiens) in what follows.
Give bare numbers, in nM.

structure: Oc1ccccc1CNCCc1c[nH]c2ccccc12
testResult: 67.6

structure: Oc1cccc(Br)c1CNCCc1c[nH]c2ccccc12
testResult: 69.2

structure: COc1ccc2[nH]cc(CCNCc3ccccc3Br)c2c1
testResult: 28.8

structure: Clc1ccc(CNCCc2c[nH]c3ccccc23)cc1
testResult: 224

structure: Oc1ccc(F)cc1CNCCc1c[nH]c2ccccc12
testResult: 77.6

structure: Oc1c(Br)cccc1CNCCc1c[nH]c2ccccc12
testResult: 15.5

structure: COc1cccc(CNCCc2c[nH]c3ccccc23)c1OC
testResult: 195

structure: Oc1cccc(CNCCc2c[nH]c3ccccc23)c1
testResult: 37.1

structure: COc1ccc(O)c(CNCCc2c[nH]c3ccc(OC)cc23)c1
testResult: 20.4

structure: CCOc1ccc(CNCCc2c[nH]c3ccccc23)cc1
testResult: 269

For each of the compounds below, note its Ki.
1. Oc1c(F)cccc1CNCCc1c[nH]c2ccccc12
2. O=[N+]([O-])c1ccc(CNCCc2c[nH]c3ccccc23)cc1
3. Cc1ccc(CNCCc2c[nH]c3ccccc23)cc1
4. Clc1cccc(CNCCc2c[nH]c3ccccc23)c1
5. COc1ccc(Br)cc1CNCCc1c[nH]c2ccccc12
6. Cc1ccccc1CNCCc1c[nH]c2ccccc12
7. Clc1ccccc1CNCCc1c[nH]c2ccccc12

1. 129
2. 200
3. 74.1
4. 34.7
5. 91.2
6. 339
7. 23.4

For each of the compounds below, note its Ki.
1. Oc1ccc(CNCCc2c[nH]c3ccccc23)cc1
2. COc1ccc2[nH]cc(CCNCc3ccccc3Cl)c2c1
3. COc1cccc(CNCCc2c[nH]c3ccccc23)c1O
4. COc1ccc(F)cc1CNCCc1c[nH]c2ccccc12

1. 490
2. 37.1
3. 13.2
4. 95.5
